Measured values drawn from patent EP0325048A1 for this set.

Test system: anaphylactic bronchospasm in sensitized guinea pigs
assay.text: anaphylactic bronchospasm in sensitized guinea pigs (modified Konzett-Rossler), antigen-induced SRS-A mediated bronchoconstriction
Format: in vivo
condition.details: 5 mg/kg p.o., 2 hours before antigen challenge; inhibition of increase in intratracheal pressure
reported.property: % Inhibition of Broncho-constriction
Returns: string containing the number followed by the unit.

So, O=c1c2cccnc2c(-c2ccc(Cl)cc2)c2n1CCN2 ? Its % Inhibition of Broncho-constriction was 11%

So, O=c1c2cccnc2c(-c2cccc(Cl)c2)c2n1CCCN2 ? Its % Inhibition of Broncho-constriction was 54%

So, Cc1ccc(-c2c3n(c(=O)c4cccnc24)CCN3)cc1 ? Its % Inhibition of Broncho-constriction was 1%

So, COc1cccc(-c2c3n(c(=O)c4cccnc24)CCN3)c1 ? Its % Inhibition of Broncho-constriction was 61%

So, O=c1c2cccnc2c(-c2cccc(Cl)c2)c2n1CCN2 ? Its % Inhibition of Broncho-constriction was 43%
